# Tested on: HEK-293T
# experiment summary: Multiplex assay against HEK293T
# Format: toxicity, cell-based
# stated conditions: human, 12 h, 1 µM, compound concentration 1 uM, replicate 2
test readout: Population Mitotic Cells (%)
Report the figure in % without appending any unit label.

Incoming: Which Population Mitotic Cells (%) value is on record for `CC(C)N1CCC(C)(C)c2cc(C#Cc3ccc(C(=O)O)cc3)ccc21` ?
Outgoing: 81

Incoming: Which Population Mitotic Cells (%) value is on record for `CN(C)CCOc1ccc(-c2nc(-c3ccncc3)c(-c3ccc4c(c3)CC/C4=N\O)[nH]2)cc1` ?
Outgoing: 82

Incoming: Which Population Mitotic Cells (%) value is on record for `Nc1nc2c(c(N3CCNCC3)n1)CCC1=C2[C@@H]2CCCC[C@@H]2O1` ?
Outgoing: 78

Incoming: Which Population Mitotic Cells (%) value is on record for `CC(C)(C)c1cnc(CSc2cnc(NC(=O)C3CCNCC3)s2)o1` ?
Outgoing: 78

Reference for the values: ChEMBL document CHEMBL4689842
